clearance by entry:
experiment: Clearance in Sprague-Dawley rat at 0.25 mg/kg, iv measured upto 8 hrs by LC/MS/MS analysis; format: ADME, organism-based; settings: in vivo
assay.metric: clearance (mL/min/kg)

chemical.structure	endpoint.result
Cc1cc(-c2c[nH]c3ncc(-c4cc(C)c5c(c4)CN([C@@H](C)C4CC4)C5=O)cc23)ccc1CC(=O)O	30
Cc1cc(-c2cnc3[nH]cc(-c4ccc(C(=O)O)cc4)c3c2)cc2c1C(=O)N([C@@H](C)C1CC1)C2	183
Cc1cc(-c2c[nH]c3ncc(-c4cc5c(c(C(F)(F)F)c4)C(=O)N([C@@H](C)C4CC4)C5)cc23)cc(C)c1C(=O)O	467
Cc1cc(-c2cnc3[nH]cc(-c4ccc(C5(C(=O)O)CC5)cc4)c3c2)cc2c1C(=O)N([C@@H](C)C1CC1)C2	30
Cc1cc(-c2c[nH]c3ncc(-c4cc(C)c5c(c4)CN([C@@H](C)C4CC4)C5=O)cc23)cc(C)c1C(=O)O	115

###

species: Homo sapiens; test: Selectivity index, ratio of inhibition for PI3Kdelta (unknown origin) to inhibition for PI3K p120 gamma (unknown origin) using phosphatidylinositol 4,5-bisphosphate as substrate in presence of ATP incubated for 60 mins by ADP-Glo assay
Parameter: Selectivity ratio. Scope: all listed entries.
assay.metric: Selectivity ratio

chemical.structure	endpoint.result
Cc1cc(-c2cnc3[nH]cc(-c4ccc(C#N)cc4)c3c2)cc2c1C(=O)N([C@@H](C)C1CC1)C2	> 242
Cc1ccc(-c2c[nH]c3ncc(-c4cc(C)c5c(c4)CN([C@@H](C)C4CC4)C5=O)cc23)cc1C(=O)O	> 1900
Cc1cc(-c2cnc3[nH]cc(-c4ccccc4C(=O)O)c3c2)cc2c1C(=O)N([C@@H](C)C1CC1)C2	> 59

###

species on record: Homo sapiens; test: Selectivity index, ratio of inhibition for PI3Kdelta (unknown origin) to inhibition for PI3K p120 gamma (unknown origin) using phosphatidylinositol 4,5-bisphosphate as substrate in presence of ATP incubated for 60 mins by ADP-Glo assay

compound	Selectivity ratio
Cc1cc(-c2cnc3[nH]cc(-c4ccccn4)c3c2)cc2c1C(=O)N([C@@H](C)C1CC1)C2	> 308
Cc1cc(-c2cnc3[nH]cc(-c4ccncc4)c3c2)cc2c1C(=O)N([C@@H](C)c1ccc(F)cc1)C2	> 190
Cc1cc(-c2cnc3[nH]cc(C4CCNC4)c3c2)cc2c1C(=O)N([C@@H](C)C1CC1)C2 (stereo partly drawn)	> 36

###

molecular target: Phosphatidylinositol 4,5-bisphosphate 3-kinase catalytic subunit gamma isoform (Homo sapiens); assay: Inhibition of PI3Kgamma in human THP-1 cells assessed as reduction in Akt phosphorylation at S473 residue incubated for 60 mins measured after 120 mins by alphalisa assay; format: cell-based
Sequence (P48736 whole entry, canonical isoform): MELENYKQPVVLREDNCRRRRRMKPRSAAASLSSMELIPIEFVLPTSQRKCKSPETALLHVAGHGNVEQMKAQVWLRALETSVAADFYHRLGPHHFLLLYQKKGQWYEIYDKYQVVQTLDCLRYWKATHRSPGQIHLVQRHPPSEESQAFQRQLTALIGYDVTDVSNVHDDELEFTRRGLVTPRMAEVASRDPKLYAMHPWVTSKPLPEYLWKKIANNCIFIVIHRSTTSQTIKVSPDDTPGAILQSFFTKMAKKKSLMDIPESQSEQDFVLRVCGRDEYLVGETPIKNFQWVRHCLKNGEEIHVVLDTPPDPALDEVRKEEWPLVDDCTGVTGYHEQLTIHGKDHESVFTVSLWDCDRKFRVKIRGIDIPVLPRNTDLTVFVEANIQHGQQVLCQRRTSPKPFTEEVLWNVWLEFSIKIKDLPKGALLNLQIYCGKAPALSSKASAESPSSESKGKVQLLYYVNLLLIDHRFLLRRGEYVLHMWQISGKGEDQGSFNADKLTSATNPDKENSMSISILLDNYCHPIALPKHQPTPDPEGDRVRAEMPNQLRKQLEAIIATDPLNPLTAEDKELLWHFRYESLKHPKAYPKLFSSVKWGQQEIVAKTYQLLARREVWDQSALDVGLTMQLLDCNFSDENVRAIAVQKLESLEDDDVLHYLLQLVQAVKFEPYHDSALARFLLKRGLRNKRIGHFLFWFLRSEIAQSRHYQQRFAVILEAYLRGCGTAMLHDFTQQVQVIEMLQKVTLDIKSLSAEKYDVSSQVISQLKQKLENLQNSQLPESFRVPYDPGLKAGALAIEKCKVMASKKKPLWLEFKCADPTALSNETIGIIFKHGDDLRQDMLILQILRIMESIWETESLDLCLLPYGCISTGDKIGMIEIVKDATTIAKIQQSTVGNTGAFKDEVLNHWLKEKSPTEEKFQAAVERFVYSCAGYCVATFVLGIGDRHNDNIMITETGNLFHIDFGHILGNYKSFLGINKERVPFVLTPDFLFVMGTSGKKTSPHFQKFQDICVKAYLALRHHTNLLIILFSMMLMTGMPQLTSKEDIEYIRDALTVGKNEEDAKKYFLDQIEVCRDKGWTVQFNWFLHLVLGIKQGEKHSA
pIC50: −log10 of the molar value.
Class (by pIC50) -- LOW: < 6; MID: ≥ 6 and < 7; HIGH: ≥ 7

chemical.structure	label.class
Cc1ccc(-c2c[nH]c3ncc(-c4cc(C)c5c(c4)CN([C@@H](C)C4CC4)C5=O)cc23)cc1C(=O)O	MID
Cc1cc(-c2cnc3[nH]cc(C(=O)NC4CCOCC4)c3c2)cc2c1C(=O)N([C@@H](C)C1CC1)C2	MID
Cc1cc(-c2c[nH]c3ncc(-c4cc5c(c(C(F)(F)F)c4)C(=O)N([C@@H](C)C4CC4)C5)cc23)cc(C)c1C(=O)O	HIGH
COc1cc(-c2cnc3[nH]cc(-c4cnn(C)c4)c3c2)cc2c1C(=O)N([C@@H](C)C1CC1)C2	MID
Cc1cc(-c2cnc3[nH]cc(-c4ccccc4C(=O)O)c3c2)cc2c1C(=O)N([C@@H](C)C1CC1)C2	LOW
C[C@@H](C1CC1)N1Cc2cc(-c3cnc4[nH]cc(-c5cnn(C)c5)c4c3)cc(C#N)c2C1=O	MID
Cc1cc(-c2cnc3[nH]cc(-c4ccc(C#N)cc4)c3c2)cc2c1C(=O)N([C@@H](C)C1CC1)C2	LOW
Cc1cc(-c2cnc3[nH]cc(-c4ccc(C(=O)O)c(C(C)C)c4)c3c2)cc2c1C(=O)N([C@@H](C)C1CC1)C2	HIGH
Cc1cc(-c2cnc3[nH]cc(-c4ccc(C(=O)O)c(C(F)(F)F)c4)c3c2)cc2c1C(=O)N([C@@H](C)C1CC1)C2	MID
Cc1cc(-c2cnc3[nH]cc(-c4cnn(C)c4)c3c2)cc2c1C(=O)N([C@@H](C)C1CC1)C2	MID
Cc1cc(-c2cnc3[nH]cc(-c4ccc(S(N)(=O)=O)cc4)c3c2)cc2c1C(=O)N([C@@H](C)C1CC1)C2	MID
Cc1cc(-c2cnc3[nH]cc(-c4ccnc(N)c4)c3c2)cc2c1C(=O)N([C@@H](C)C1CC1)C2	MID
CC(C)c1cc(-c2cnc3[nH]cc(-c4cnn(C)c4)c3c2)cc2c1C(=O)N([C@@H](C)C1CC1)C2	MID
Cc1cc(-c2cnc3[nH]cc(-c4ccnc(C(F)(F)F)c4)c3c2)cc2c1C(=O)N([C@@H](C)C1CC1)C2	LOW
C[C@@H](C1CC1)N1Cc2cc(-c3cnc4[nH]cc(-c5cnn(C)c5)c4c3)cc(S(C)(=O)=O)c2C1=O	HIGH

###

Overview of recorded Selectivity ratio for various molecules
species: Homo sapiens; assay: Selectivity index, ratio of inhibition for PI3Kalpha (unknown origin) to inhibition for PI3K p120 gamma (unknown origin) using phosphatidylinositol 4,5-bisphosphate as substrate in presence of ATP incubated for 60 mins by ADP-Glo assay

molecule	Selectivity ratio
Cc1ccc(-c2c[nH]c3ncc(-c4cc(C)c5c(c4)CN([C@@H](C)C4CC4)C5=O)cc23)cc1C(=O)O	> 1560
Cc1cc(-c2cnc3[nH]cc(C(=O)O)c3c2)cc2c1C(=O)N([C@@H](C)C1CC1)C2	> 775
Cc1cc(-c2cnc3[nH]cc(C4CCNC4)c3c2)cc2c1C(=O)N([C@@H](C)C1CC1)C2 (some centres not stated)	> 36
Cc1cc(-c2cnc3[nH]cc(-c4ccnc(C(F)(F)F)c4)c3c2)cc2c1C(=O)N([C@@H](C)C1CC1)C2	> 578
COc1cc(-c2cnc3[nH]cc(-c4cnn(C)c4)c3c2)cc2c1C(=O)N([C@@H](C)C1CC1)C2	> 1670
Cc1cc(-c2cnc3[nH]cc(-c4ccc(S(N)(=O)=O)cc4)c3c2)cc2c1C(=O)N([C@@H](C)C1CC1)C2	1060
Cc1cc(-c2cnc3[nH]cc(-c4ccc(C(=O)O)c(N5CCCC5)c4)c3c2)cc2c1C(=O)N([C@@H](C)C1CC1)C2	853

###

molecular target: Phosphatidylinositol 4,5-bisphosphate 3-kinase catalytic subunit gamma isoform (Homo sapiens); assay: Inhibition of PI3Kgamma in human THP-1 cells assessed as reduction in Akt phosphorylation at S473 residue incubated for 60 mins measured after 120 mins by alphalisa assay; assay type: cell-based
assay.metric: IC50 (nM)

chemical.structure	assay.metric	endpoint.result
C[C@@H](C1CC1)N1Cc2cc(-c3cnc4[nH]cc(-c5cnn(C)c5)c4c3)cc(NS(C)(=O)=O)c2C1=O	IC50	150
C[C@@H](C1CC1)N1Cc2cc(-c3cnc4[nH]cc(-c5ccc(C6(C(=O)O)CC6)cc5)c4c3)cc(C(F)(F)F)c2C1=O	IC50	110
Cc1cc(-c2c[nH]c3ncc(-c4cc(C)c5c(c4)CN([C@@H](C)C4CC4)C5=O)cc23)ccc1CC(=O)O	IC50	150
CC[C@@H](C1CC1)N1Cc2cc(-c3cnc4[nH]cc(-c5ccncc5)c4c3)cc(C)c2C1=O	IC50	800
Cc1cc(-c2cnc3[nH]cc(-c4ccncc4)c3c2)cc2c1C(=O)N(C(C1CC1)C1CC1)C2	IC50	800
Cc1cc(-c2cnc3[nH]cc(-c4ccc(C(=O)O)c(F)c4)c3c2)cc2c1C(=O)N([C@@H](C)C1CC1)C2	IC50	700
Cc1cc(-c2c[nH]c3ncc(-c4cc(C)c5c(c4)CN([C@@H](C)C4CC4)C5=O)cc23)cc(C)c1C(=O)O	IC50	90
C[C@@H](C1CC1)N1Cc2cc(-c3cnc4[nH]cc(-c5cnn(C)c5)c4c3)cc(S(=O)(=O)N(C)C)c2C1=O	IC50	100
